For each record, write down the corresponding pKd.
- ASSAY SYSTEM: T1, MBP-fused PDZ domain 3 of PDZD7 (human, UniProt Q9H5P4 862-934)
- T1 sequence (looked up): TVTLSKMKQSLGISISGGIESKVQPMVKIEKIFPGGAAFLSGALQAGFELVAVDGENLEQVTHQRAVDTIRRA
- METHOD SUMMARY: fluorescence polarisation
Where no end group is shown, it is not given here.
In plain terms, pKd is the concentration in mol/L turned into minus its base-10 logarithm.

Identify measured pKd corresponding to RSK1 683-735 peptide, unphosphorylated (peptide, UniProt Q15418 683-735, looked up) peptide: QSQLSHQDLQLVKGAMAATYSALNSSKPTPQLKPIESSILAQRRVRKLPSTTL
5.40

Identify measured pKd corresponding to RSK1 683-735 peptide, phosphorylated (peptide, UniProt Q15418 683-735, looked up, also: monophosphorylated, site not given here) peptide: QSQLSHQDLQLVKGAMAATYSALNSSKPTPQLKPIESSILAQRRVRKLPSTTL
4.34

Values from paper PMC6424611
